// merged dataset of Ki values, system = the protein given by its sequence, multiple refs
Target sequence: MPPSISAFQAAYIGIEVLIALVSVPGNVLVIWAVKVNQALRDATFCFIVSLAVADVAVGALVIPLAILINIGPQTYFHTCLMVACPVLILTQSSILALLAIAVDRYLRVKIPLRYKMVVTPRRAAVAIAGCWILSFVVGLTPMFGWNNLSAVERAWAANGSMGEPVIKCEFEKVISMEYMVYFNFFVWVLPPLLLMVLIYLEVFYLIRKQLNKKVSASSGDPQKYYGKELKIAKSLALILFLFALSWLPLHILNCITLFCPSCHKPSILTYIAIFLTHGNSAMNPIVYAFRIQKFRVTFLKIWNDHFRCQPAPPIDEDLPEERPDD
Report only the number, with the unit µM understood.

{"compound": "OC[C@H]1O[C@@H](n2cnc3c(NC4CC4c4ccccc4)nc(C#Cc4ccccc4)nc32)[C@H](O)[C@@H]1O (mixture of isomers)", "measurement_type": "Ki", "u": "µM", "value_measured": 0.124}
{"compound": "CNC(=O)c1cnc(NC(=O)NC2CCCCC2)n2nc(-c3ccco3)nc12", "measurement_type": "Ki", "u": "µM", "value_measured": 8.99}
{"compound": "CCCn1c(=O)c2[nH]c(-c3ccc(OCC(=O)Nc4ccccc4)cc3)nc2n(CCC)c1=O", "measurement_type": "Ki", "u": "µM", "value_measured": 0.0407}
{"compound": "Cc1cc(C)n(-c2cc(NC(=O)CN3CC[C@H](N(C)C)C3)nc(-c3ccc(C)o3)n2)n1", "measurement_type": "Ki", "u": "µM", "value_measured": 0.94}

Form field Ki, entry CCCC(=O)Nc1cc(-c2ccccc2)nc(-c2ccccc2)n1 : 0.0195

----------
pKi: −log10 of the molar value.
// merged dataset of pKi values, system = Adenosine receptor A1 (Homo sapiens), multiple refs

Please review the following examples before continuing.
{"compound": "Nc1nc(C(=O)NCCc2ccccn2)c2cccc(F)c2n1", "pKi": 6.22}
{"compound": "COc1ccc(C(=O)Nc2nc(-c3ccccc3)c(C#N)c(-c3ccccc3)n2)cc1", "pKi": 6.99}
{"compound": "CCOC(=O)c1nc(NC(=O)c2ccc(F)cc2)nc2nn(CCc3ccccc3)cc12", "pKi": 5.30}
{"compound": "Nc1nc(C(=O)NCc2cccc3cccnc23)c2cc(F)ccc2n1", "pKi": 6.46}
{"compound": "O=C(Nc1nc(-c2ccccc2)n[nH]1)C1CCCO1 (stereo not given)", "pKi": 5.49}
{"compound": "Cn1cc2c(nc(N=C(Nc3ccc(C#N)cc3)Nc3ccc(C#N)cc3)n3nc(-c4ccco4)nc23)n1", "pKi": "< 6.00"}
{"compound": "CCCn1c(=O)c2c(nc3[nH]c(CC)cn32)n(Cc2ccccc2)c1=O", "pKi": "< 6.00"}
{"compound": "CCn1c(C)cn2c3c(=O)[nH]c(=O)n(Cc4ccccc4)c3nc12", "pKi": "< 6.00"}
{"compound": "CCNC(=O)[C@H]1O[C@@H](n2cnc3c(NNC(=O)c4cc(-c5ccccc5)on4)nc(Cl)nc32)[C@H](O)[C@@H]1O", "pKi": "< 5.30"}
{"compound": "Cc1sc2nc(-c3sc(NC(=O)c4ccco4)nc3-c3ccccc3)[nH]c(=O)c2c1C", "pKi": "< 5.00"}

Consider the additional compound presented here.
Recorded pKi for CCOc1cccc2cc(-c3ccc(OC)cc3OC)c(=O)oc12 on Adenosine receptor A1 (Homo sapiens) was < 4.00
